Where do the numbers come from? From ChEMBL document CHEMBL4351020.

Hi! I'm sharing some Ki results obtained with Carbonic anhydrase 9 (Homo sapiens).
property_measured: Ki (µM)

A. NS(=O)(=O)c1ccc(C(=O)N/N=C/c2ccc(N3CCCC3)cc2)cc1
B. NS(=O)(=O)c1ccc(N/N=C/c2ccc(N3CCCCC3)cc2)cc1
API: POST /compare with A and B ; response names the item with higher Ki. Identify your pick by its label. B
(B: 0.0209 µM, A: 0.0031 µM)

====

# tested_system: Carbonic anhydrase 1 (Homo sapiens)
# Sequence (P00915 whole entry): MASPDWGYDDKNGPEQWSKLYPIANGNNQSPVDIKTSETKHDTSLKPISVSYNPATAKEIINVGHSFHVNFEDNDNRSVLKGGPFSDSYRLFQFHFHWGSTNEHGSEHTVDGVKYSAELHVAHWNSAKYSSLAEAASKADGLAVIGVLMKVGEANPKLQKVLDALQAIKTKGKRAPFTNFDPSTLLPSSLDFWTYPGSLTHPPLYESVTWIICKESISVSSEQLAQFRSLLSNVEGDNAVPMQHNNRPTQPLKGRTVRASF
# method_summary: Inhibition of human recombinant carbonic anhydrase 1 expressed in Escherichia coli by stopped flow CO2 hydration assay
property_measured: Ki (nM)

>  <smiles_record>
NS(=O)(=O)c1ccc(N/N=C/c2ccc(N3CCCC3)cc2)cc1

>  <Ki [nM]>
96.2

$$$$

1. C/C(=N\Nc1ccc(S(N)(=O)=O)cc1)c1ccc(N2CCCC2)cc1
2. NS(=O)(=O)c1ccc(C(=O)N/N=C/c2ccc(N3CCCC3)cc2)cc1
3. C/C(=N\Nc1ccc(S(N)(=O)=O)cc1)c1ccc(N2CCOCC2)cc1
// sort entries: Ki, high to low Lab note: record answer as labels in requested order. 2, 3, 1

====

# tested_system: Carbonic anhydrase 9 (Homo sapiens, UniProt Q16790)
pKi: −log10 of the molar value.
property_measured: pKi

>  <smiles_record>
C/C(=N\Nc1ccc(S(N)(=O)=O)cc1)c1ccc(N2CCOCC2)cc1

>  <tested_system>
Carbonic anhydrase 9 (Homo sapiens, UniProt Q16790)

>  <obs_value>
8.05

$$$$
>  <smiles_record>
NS(=O)(=O)c1ccc(N/N=C/c2ccc(N3CCOCC3)cc2)cc1

>  <tested_system>
Carbonic anhydrase 9 (Homo sapiens, UniProt Q16790)

>  <obs_value>
7.78

$$$$
>  <smiles_record>
C/C(=N\NC(=O)c1ccc(S(N)(=O)=O)cc1)c1ccc(N2C(=O)c3c(Cl)c(Cl)c(Cl)c(Cl)c3C2=O)cc1

>  <tested_system>
Carbonic anhydrase 9 (Homo sapiens, UniProt Q16790)

>  <obs_value>
7.76

$$$$
>  <smiles_record>
C/C(=N\Nc1ccc(S(N)(=O)=O)cc1)c1ccc(N2CCN(C)CC2)cc1

>  <tested_system>
Carbonic anhydrase 9 (Homo sapiens, UniProt Q16790)

>  <obs_value>
8.70

$$$$

a. NS(=O)(=O)c1ccc(C(=O)N/N=C/c2ccc(N3CCCCC3)cc2)cc1
b. NS(=O)(=O)c1ccc(N/N=C/c2ccc(-n3ccnc3)cc2)cc1
Of a and b , which carries the smaller reported pKi figure? Return value: the label identifying the chosen record. b
(b: 7.84, a: 8.48)
